# Experimental Target: Delta-type opioid receptor (Mus musculus)
# Assay Notes: Agonist activity at mouse delta opioid receptor expressed in HEK293 cells assessed as stimulation of [35S]GTPgammaS binding at 10 uM after 90 mins by liquid scintillation counting relative to control
# Format: functional, cell-based
The label true (1) is reserved for Activity strictly under 200%; false (0) covers values equal to or above it.

- Smiles String: "Cc1ccc(-c2nc(CN(C)C)nn2-c2cccc(O)c2)c(C)c1"
  Group Label: "true (1)"
- Smiles String: "CN(C)Cc1nc(-c2cccc(C(C)(C)C)c2)n(-c2cccc(O)c2)n1"
  Group Label: "true (1)"
- Smiles String: "CN(C)Cc1nc(-c2cccc(O)c2)n(-c2ccc(C(C)(C)C)cc2)n1"
  Group Label: "true (1)"
- Smiles String: "CN(C)Cc1nc(-c2cccc(O)c2)n(-c2cccc(C(C)(C)C)c2)n1"
  Group Label: "false (0)"
- Smiles String: "C=CCN1C[C@H](C)N([C@H](c2ccc(C(=O)N(CC)CC)cc2)c2cccc(OC)c2)C[C@H]1C"
  Group Label: "false (0)"
- Smiles String: "CN(C)Cc1nc(-c2ccc(C(C)(C)C)cc2)n(-c2cccc(O)c2)n1"
  Group Label: "false (0)"
